Some compounds, each annotated with its measured viability at 10 µM.
System: expanded OPCs
protocol: cells
applied_conditions: Rattus norvegicus, 72 h, read-out: 10 µM (% DMSO), alamarBlue viability of expanded OPCs, compound at 10 µM, sheet All Tox data
Quick note: give the figure in %, leave out the unit.

The following compounds have reported results that may help.
Query string: Provide viability at 10 µM value for the following compound: `CN1CCN(c2c(F)cc3c(=O)c(C(=O)O)cn4c3c2SCC4)CC1`
Result string: 103

Query string: Return viability at 10 µM for the following compound: `CCOC(=O)[C@@]1(CCCCCCOc2ccc(Cl)cc2)CO1`
Result string: 86.2

Query string: Please indicate viability at 10 µM recorded for `COc1ccc(-c2oc3c(CC=C(C)C)c(O[C@@H]4O[C@H](CO)[C@@H](O)[C@H](O)[C@H]4O)cc(O)c3c(=O)c2O[C@@H]2O[C@@H](C)[C@H](O)[C@@H](O)[C@H]2O)cc1`
Result string: 88.8

Query string: Using known records, supply viability at 10 µM for `CN(C)CCCSc1ccccc1NC(=O)/C=C/c1ccccc1`
Result string: 74.7

Query string: Give viability at 10 µM for the following compound: `CSc1nc2cc(Cl)c(Oc3cccc(Cl)c3Cl)cc2[nH]1`
Result string: 11.1

Query string: Please give the documented viability at 10 µM of `Cc1nnc2n1-c1ccc(Cl)cc1C(c1ccccc1)=NC2`
Result string: 139

Query string: Hello, please tell me recorded viability at 10 µM for this one: `C[C@@H](O)[C@H]1C(=O)N2C(C(=O)O)=C(S[C@@H]3CN[C@H](C(=O)N(C)C)C3)[C@H](C)[C@H]12`
Result string: 102

Query string: Supply viability at 10 µM value. Item: CC(NC(C)(C)C)C(=O)c1cccc(Cl)c1 (stereo not drawn)
Result string: 128

Further cases:
Query string: Give reported viability at 10 µM value for CC(=O)N1CCN(c2ccc(OCC3COC(Cn4ccnc4)(c4ccc(Cl)cc4Cl)O3)cc2)CC1 (stereo not drawn)
Result string: 109

Query string: Quick one: give measured viability at 10 µM for `CC(=O)Nc1ccc(CC(=O)O)cc1`
Result string: 102

Query string: Tell me its viability at 10 µM given `CC(=O)CCCCn1c(=O)c2c(ncn2C)n(C)c1=O` as the entry.
Result string: 98

Query string: Tell us which viability at 10 µM value is on record for `CCOC(=O)N1CCC(=C2c3ccc(Cl)cc3CCc3cccnc32)CC1`
Result string: 13.9

Query string: Given Oc1ccc(C2CNCCc3c2cc(O)c(O)c3Cl)cc1 (stereo not drawn) , respond with its viability at 10 µM.
Result string: 75.9

Query string: Given the compound CNC1CC(c2ccc(Cl)c(Cl)c2)c2ccccc21 (stereo not drawn) , write its reported viability at 10 µM.
Result string: 11.7

Query string: Kindly indicate its recorded viability at 10 µM. Item: `COc1ccc2nc([S@@+]([O-])Cc3ncc(C)c(OC)c3C)[nH]c2c1`
Result string: 95.3
